Values compiled from paper PMC6150242.

- System: human breast cancer MDA-MB-231 cell line
- Assay remarks: MTT in vitro cytotoxicity assay, MDA-MB-231
- Assay type: cell-based
- Run parameters: MDA-MB-231, 48 h, read-out: IC50 (µM) MDA-MB-231
Readout name: IC50

{"columns": ["Smiles entry", "Recorded value"],
 "data": [
  ["COc1ccc2cc1Oc1ccc(cc1)C[C@H]1c3cc(c(OC)cc3CCN1C)Oc1c(O)c(OC)cc3c1[C@H](C2)N(C)CC3", "12.3 µM"]
]}

###

- Test system: human melanoma WM9 cell line
- Assay remarks: MTT in vitro cytotoxicity assay, WM9
- Format: cell-based
- Run parameters: Homo sapiens, WM9, 48 h, read-out: IC50 (µM) WM9
Readout name: IC50 (µM)

{"columns": ["Smiles entry", "Recorded value"],
 "data": [
  ["COc1ccc2cc1Oc1ccc(cc1)C[C@H]1c3cc(c(OC)cc3CCN1C)Oc1c(O)c(OC)cc3c1[C@H](C2)N(C)CC3", 13.1]
]}

###

Quick reference for IC50 among some compounds
- Test system: human breast cancer MDA-MB-231 cell line
- Assay remarks: MTT in vitro cytotoxicity assay, MDA-MB-231
- Type: cell-based
- Run parameters: MDA-MB-231, MTT assay after 48 h of treatment, averaged from at least 3 independent experiments, variation ±10%, read-out: IC50 (µM) MDA-MB-231
Readout name: IC50 (µM)

{"columns": ["Smiles entry", "Readout name", "Recorded value"],
 "data": [
  ["COc1cc(Br)c2cc1Oc1ccc(cc1)C[C@H]1c3cc(c(OC)cc3CCN1C)Oc1c(OC(=O)c3ccccc3)c(OC)c(Br)c3c1[C@H](C2)N(C)CC3", "IC50", 4.12],
  ["COc1ccc2cc1Oc1ccc(cc1)C[C@H]1c3cc(c(OC)cc3CCN1C)Oc1c(OCC=C(C)C)c(OC)cc3c1[C@H](C2)N(C)CC3", "IC50", 4.44],
  ["C=CCOc1c(OC)cc2c3c1Oc1cc4c(cc1OC)CCN(C)[C@H]4Cc1ccc(cc1)Oc1cc(ccc1OC)C[C@@H]3N(C)CC2", "IC50", 5.04]
]}

###

- Tested on: human breast cancer MDA-MB-231 cell line
- Assay remarks: MTT in vitro cytotoxicity assay, MDA-MB-231
- Assay type: cell-based
- Run parameters: MDA-MB-231, MTT assay after 48 h of treatment, averaged from at least 3 independent experiments, variation ±10%, read-out: IC50 (µM) MDA-MB-231
Quick reference for IC50 among some compounds
Readout name: IC50

{"columns": ["Compound", "Readout name", "Recorded value"],
 "data": [
  ["CC[C@]1(O)C[C@H]2CN(CCc3c([nH]c4ccccc34)[C@@](C(=O)OC)(c3cc4c(cc3OC)N(C=O)[C@H]3[C@@](O)(C(=O)OC)[C@H](OC(C)=O)[C@]5(CC)C=CCN6CC[C@]43[C@@H]65)C2)C1 [Vincristine, reference compound]", "IC50", "13.1 µM"],
  ["COc1ccc2cc1Oc1ccc(cc1)C[C@H]1c3cc(c(OC)cc3CCN1C)Oc1c(OS(=O)(=O)c3ccc(C)cc3)c(OC)cc3c1[C@H](C2)N(C)CC3", "IC50", "4.61 µM"]
]}

###

Quick reference for IC50 among some molecules
- Tested on: human melanoma WM9 cell line
- Assay remarks: MTT in vitro cytotoxicity assay, WM9
- Type: cell-based
- Run parameters: Homo sapiens, WM9; MTT assay after 48 h of treatment; averaged from at least 3 independent experiments; variation ±10%; read-out: IC50 (µM) WM9
Readout name: IC50 (µM)

{"columns": ["Molecule", "Readout name", "Recorded value"],
 "data": [
  ["COc1ccc2cc1Oc1ccc(cc1)C[C@H]1c3cc(c(OC)cc3CCN1C)Oc1c(OCc3ccccc3)c(OC)cc3c1[C@H](C2)N(C)CC3", "IC50", 3.44],
  ["COc1ccc2cc1Oc1ccc(cc1)C[C@H]1c3cc(c(OC)cc3CCN1C)Oc1c(OS(=O)(=O)c3ccccc3[N+](=O)[O-])c(OC)cc3c1[C@H](C2)N(C)CC3", "IC50", 3.58],
  ["COc1ccc2cc1Oc1ccc(cc1)C[C@H]1c3cc(c(OC)cc3CCN1C)Oc1c(OC(=O)c3ccccc3)c(OC)cc3c1[C@H](C2)N(C)CC3", "IC50", 2.73],
  ["COc1ccc2cc1Oc1ccc(cc1)C[C@H]1c3cc(c(OC)cc3CCN1C)Oc1c(OC(=O)c3ccco3)c(OC)cc3c1[C@H](C2)N(C)CC3", "IC50", 3.13],
  ["C=CCOc1c(OC)cc2c3c1Oc1cc4c(cc1OC)CCN(C)[C@H]4Cc1ccc(cc1)Oc1cc(ccc1OC)C[C@@H]3N(C)CC2", "IC50", 3.05],
  ["COc1cc([N+](=O)[O-])c2cc1Oc1ccc(cc1)C[C@H]1c3cc(c(OC)cc3CCN1C)Oc1c(OC(=O)c3ccccc3)c(OC)cc3c1[C@H](C2)N(C)CC3", "IC50", 1.07],
  ["COc1cc([N+](=O)[O-])c2cc1Oc1ccc(cc1)C[C@H]1c3cc(c(OC)cc3CCN1C)Oc1c(OCc3ccccc3)c(OC)cc3c1[C@H](C2)N(C)CC3", "IC50", 3.04],
  ["COc1ccc2cc1Oc1ccc(cc1)C[C@H]1c3cc(c(OC)cc3CCN1C)Oc1c(OC(C)=O)c(OC)cc3c1[C@H](C2)N(C)CC3", "IC50", 2.65],
  ["COc1cc(Br)c2cc1Oc1ccc(cc1)C[C@H]1c3cc(c(OC)cc3CCN1C)Oc1c(OC(=O)c3ccccc3)c(OC)c(Br)c3c1[C@H](C2)N(C)CC3", "IC50", 2.51],
  ["CC[C@]1(O)C[C@H]2CN(CCc3c([nH]c4ccccc34)[C@@](C(=O)OC)(c3cc4c(cc3OC)N(C=O)[C@H]3[C@@](O)(C(=O)OC)[C@H](OC(C)=O)[C@]5(CC)C=CCN6CC[C@]43[C@@H]65)C2)C1 [Vincristine, reference compound]", "IC50", 10.6],
  ["COc1cc(Cl)c2cc1Oc1ccc(cc1)C[C@H]1c3cc(c(OC)cc3CCN1C)Oc1c(OC(=O)c3ccccc3)c(OC)c(Cl)c3c1[C@H](C2)N(C)CC3", "IC50", 3.54],
  ["COc1ccc2cc1Oc1ccc(cc1)C[C@H]1c3cc(c(OC)cc3CCN1C)Oc1c(OS(=O)(=O)c3ccc(C)cc3)c(OC)cc3c1[C@H](C2)N(C)CC3", "IC50", 3.95],
  ["COc1ccc2cc1Oc1ccc(cc1)C[C@H]1c3cc(c(OC)cc3CCN1C)Oc1c(OCC=C(C)C)c(OC)cc3c1[C@H](C2)N(C)CC3", "IC50", 5.56]
]}
